# Target Entity: CDK2 (Homo sapiens)
# Construct: host or cells: HEK293
# Protocol: CDK2 HIBIT PQ (protein quantification), degradation
# Type: cell-based
# Assay Context: Max = Maximum
Endpoint Label: CDK2 HIBIT PQ Max (%)

Molecule	Recorded Value
CC(C)Oc1c(-c2cn[nH]c2)ncn2nc(NC3CCN(S(=O)(=O)c4cccc(CN5CC(c6ccc7c(c6)CN(C6CCC(=O)NC6=O)C7=O)C5)c4)CC3)nc12 (racemic) [Compound 4]	63
CC(C)Oc1c(-c2cn[nH]c2)ncn2nc(Nc3ccc(S(=O)(=O)N4CCC[C@H](CN5CC[C@H](c6ccc7c(N8CCC(=O)NC8=O)nn(C)c7c6)CC5(C)C)C4)cc3F)nc12 (single isomer, unassigned) [Compound 104]	75
CC(C)Oc1c(-c2cn[nH]c2)ncn2nc(Nc3ccc(S(=O)(=O)N(C)CCCN4CCN(c5ccc6c(c5)n(C)c(=O)n6C5CCC(=O)NC5=O)C[C@@H]4C(C)C)cc3F)nc12 (stereo partly shown) [Compound 64]	89
CC(C)Oc1c(-c2cn[nH]c2)ncn2nc(Nc3ccc(S(=O)(=O)c4cccc(CN5CCN(c6ccc7c(N8CCC(=O)NC8=O)nn(C)c7c6)CC5(C)C)c4)cc3F)nc12 [Compound 47]	97
CC(C)Oc1c(-c2cn[nH]c2)ncn2nc(Nc3ccc(S(=O)(=O)c4cccc(C[C@H]5C[C@H](c6ccc7c(c6)CN([C@@H]6CCC(=O)NC6=O)C7=O)C5)c4)cc3F)nc12 (stereo in doubt) [Compound 80]	98

[I] CC(C)Oc1c(-c2cn[nH]c2)ncn2nc(Nc3ccc(S(=O)(=O)c4cccc(C(C)N5CCC(c6ccc7c(N8CCC(=O)NC8=O)nn(C)c7c6)CC5)c4)cc3F)nc12 (racemic) [Compound 85]
[II] CC(C)Oc1c(-c2cn[nH]c2)ncn2nc(Nc3ccc(S(=O)(=O)N(C)CCCN4CCC(c5cccc6c5n(C)c(=O)n6C5CCC(=O)N(C)C5=O)CC4)cc3F)nc12 (racemic) [Compound 28]
### Prompt Hey, which is lower on measured CDK2 HIBIT PQ Max (%), I or II ? Choose, then provide that item's label.
### Response II
